Data credit: patent US20090270394A1

Recorded measurements of inhibition at 30 µM, one per entry
- target entity: Human Cav2.2 channels (Homo sapiens, UniProt Q00975)
- Construct: expressed in transfected cells
- Sequence (Q00975 whole entry): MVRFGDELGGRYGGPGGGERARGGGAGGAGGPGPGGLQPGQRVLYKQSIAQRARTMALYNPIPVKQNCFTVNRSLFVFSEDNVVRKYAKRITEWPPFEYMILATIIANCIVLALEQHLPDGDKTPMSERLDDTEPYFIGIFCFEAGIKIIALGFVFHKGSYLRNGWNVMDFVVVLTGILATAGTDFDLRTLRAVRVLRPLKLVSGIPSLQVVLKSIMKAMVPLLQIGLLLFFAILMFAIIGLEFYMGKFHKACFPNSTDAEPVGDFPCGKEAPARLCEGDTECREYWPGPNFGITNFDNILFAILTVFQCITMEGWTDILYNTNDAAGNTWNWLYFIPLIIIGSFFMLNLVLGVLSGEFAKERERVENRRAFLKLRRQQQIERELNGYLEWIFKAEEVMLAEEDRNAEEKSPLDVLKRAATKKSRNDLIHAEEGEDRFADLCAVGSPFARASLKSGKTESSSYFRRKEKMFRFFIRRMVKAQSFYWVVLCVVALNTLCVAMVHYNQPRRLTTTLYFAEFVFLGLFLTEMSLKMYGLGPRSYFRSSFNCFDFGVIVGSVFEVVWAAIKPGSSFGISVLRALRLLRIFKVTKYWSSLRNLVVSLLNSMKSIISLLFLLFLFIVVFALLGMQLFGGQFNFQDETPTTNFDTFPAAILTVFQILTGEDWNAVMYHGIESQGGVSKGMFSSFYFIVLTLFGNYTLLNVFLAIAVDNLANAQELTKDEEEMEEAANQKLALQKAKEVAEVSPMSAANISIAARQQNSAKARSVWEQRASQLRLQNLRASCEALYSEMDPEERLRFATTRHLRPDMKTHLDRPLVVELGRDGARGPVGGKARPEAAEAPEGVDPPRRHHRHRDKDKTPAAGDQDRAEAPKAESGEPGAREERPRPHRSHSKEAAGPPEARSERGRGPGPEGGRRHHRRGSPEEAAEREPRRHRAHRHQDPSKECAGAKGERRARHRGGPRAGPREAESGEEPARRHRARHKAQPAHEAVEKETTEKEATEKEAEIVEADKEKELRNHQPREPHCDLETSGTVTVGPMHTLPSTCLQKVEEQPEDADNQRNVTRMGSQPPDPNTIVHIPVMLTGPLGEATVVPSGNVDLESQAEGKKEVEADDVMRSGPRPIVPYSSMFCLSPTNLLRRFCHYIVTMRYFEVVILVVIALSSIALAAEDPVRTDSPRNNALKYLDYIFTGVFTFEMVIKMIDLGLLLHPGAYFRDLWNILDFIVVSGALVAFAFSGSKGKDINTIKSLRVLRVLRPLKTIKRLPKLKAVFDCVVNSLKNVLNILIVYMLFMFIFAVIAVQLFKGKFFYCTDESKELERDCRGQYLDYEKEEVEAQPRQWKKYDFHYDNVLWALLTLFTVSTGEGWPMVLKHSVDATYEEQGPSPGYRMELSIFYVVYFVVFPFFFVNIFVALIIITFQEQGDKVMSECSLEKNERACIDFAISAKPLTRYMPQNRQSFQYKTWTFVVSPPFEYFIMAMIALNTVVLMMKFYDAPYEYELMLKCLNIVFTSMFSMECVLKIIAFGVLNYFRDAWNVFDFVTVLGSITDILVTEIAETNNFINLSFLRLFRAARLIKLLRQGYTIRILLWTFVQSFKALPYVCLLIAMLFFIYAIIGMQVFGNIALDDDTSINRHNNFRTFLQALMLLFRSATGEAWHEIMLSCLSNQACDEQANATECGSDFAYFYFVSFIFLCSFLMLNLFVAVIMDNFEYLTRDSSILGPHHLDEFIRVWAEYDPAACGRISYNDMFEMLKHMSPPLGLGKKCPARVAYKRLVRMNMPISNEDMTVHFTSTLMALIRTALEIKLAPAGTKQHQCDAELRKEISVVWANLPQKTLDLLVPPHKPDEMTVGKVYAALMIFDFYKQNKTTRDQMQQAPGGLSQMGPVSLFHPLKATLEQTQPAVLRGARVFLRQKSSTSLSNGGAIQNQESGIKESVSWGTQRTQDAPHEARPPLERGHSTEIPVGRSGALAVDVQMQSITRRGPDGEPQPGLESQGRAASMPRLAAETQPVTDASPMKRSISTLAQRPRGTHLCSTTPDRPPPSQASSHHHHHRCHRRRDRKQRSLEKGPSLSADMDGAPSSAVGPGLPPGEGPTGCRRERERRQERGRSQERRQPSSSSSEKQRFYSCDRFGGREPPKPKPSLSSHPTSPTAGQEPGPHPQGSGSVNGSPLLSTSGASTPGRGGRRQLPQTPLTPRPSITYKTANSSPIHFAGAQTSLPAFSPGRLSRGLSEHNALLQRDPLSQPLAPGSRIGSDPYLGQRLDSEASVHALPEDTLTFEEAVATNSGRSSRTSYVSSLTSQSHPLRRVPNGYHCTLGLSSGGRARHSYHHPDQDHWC
- Sequence (P54289 25-1103 partner): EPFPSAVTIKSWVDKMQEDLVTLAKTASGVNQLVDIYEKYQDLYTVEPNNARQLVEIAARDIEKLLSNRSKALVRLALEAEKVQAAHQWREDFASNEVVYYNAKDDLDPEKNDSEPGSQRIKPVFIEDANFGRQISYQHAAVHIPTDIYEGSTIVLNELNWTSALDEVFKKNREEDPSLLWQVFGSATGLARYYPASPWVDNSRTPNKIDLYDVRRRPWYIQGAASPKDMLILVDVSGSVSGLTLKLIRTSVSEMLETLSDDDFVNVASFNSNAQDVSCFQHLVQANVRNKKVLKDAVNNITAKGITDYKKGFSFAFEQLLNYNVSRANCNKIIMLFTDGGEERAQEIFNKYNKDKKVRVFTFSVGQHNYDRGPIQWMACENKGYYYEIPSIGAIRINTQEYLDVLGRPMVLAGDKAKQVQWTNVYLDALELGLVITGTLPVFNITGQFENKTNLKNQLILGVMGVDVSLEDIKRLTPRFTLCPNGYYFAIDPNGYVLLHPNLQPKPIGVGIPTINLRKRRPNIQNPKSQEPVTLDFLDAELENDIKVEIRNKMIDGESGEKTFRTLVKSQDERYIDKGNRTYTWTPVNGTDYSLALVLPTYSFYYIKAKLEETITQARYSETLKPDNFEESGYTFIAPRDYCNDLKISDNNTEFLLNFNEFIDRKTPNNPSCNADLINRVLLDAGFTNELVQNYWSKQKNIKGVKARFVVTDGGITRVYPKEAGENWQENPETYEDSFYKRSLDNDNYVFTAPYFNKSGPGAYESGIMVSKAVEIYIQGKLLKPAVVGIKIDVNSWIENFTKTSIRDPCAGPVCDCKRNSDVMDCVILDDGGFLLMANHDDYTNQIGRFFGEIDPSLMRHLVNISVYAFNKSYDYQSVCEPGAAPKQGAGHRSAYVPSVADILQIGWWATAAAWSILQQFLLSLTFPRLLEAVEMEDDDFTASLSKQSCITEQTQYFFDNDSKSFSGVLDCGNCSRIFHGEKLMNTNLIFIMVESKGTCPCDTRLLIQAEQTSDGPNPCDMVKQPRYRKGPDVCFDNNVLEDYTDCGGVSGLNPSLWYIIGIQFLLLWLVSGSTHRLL
- Sequence (P54284 whole entry partner): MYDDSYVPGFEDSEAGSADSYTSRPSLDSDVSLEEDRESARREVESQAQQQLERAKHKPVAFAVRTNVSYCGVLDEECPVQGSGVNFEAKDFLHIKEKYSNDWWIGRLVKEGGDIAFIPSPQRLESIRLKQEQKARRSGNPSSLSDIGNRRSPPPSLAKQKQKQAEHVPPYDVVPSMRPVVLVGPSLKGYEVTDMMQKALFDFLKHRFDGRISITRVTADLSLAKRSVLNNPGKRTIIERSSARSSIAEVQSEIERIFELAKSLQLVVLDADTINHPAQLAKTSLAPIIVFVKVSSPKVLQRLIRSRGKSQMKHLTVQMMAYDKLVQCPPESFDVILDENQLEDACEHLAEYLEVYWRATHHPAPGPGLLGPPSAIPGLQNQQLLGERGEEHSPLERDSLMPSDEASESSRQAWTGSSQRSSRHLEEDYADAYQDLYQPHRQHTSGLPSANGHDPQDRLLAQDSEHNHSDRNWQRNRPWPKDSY
- method summary: Fluorescent assay for Cav2.2 channels using potassium depolarization to initiate channel opening
- Assay type: cell-based
- condition label: 30 μM compound; read-out: Cav 2.2 Activity % Inh at 30 μM
# value in %; strip the unit string

• COc1ccc(CNC(=O)C2(NC(=O)c3cc(C(C)(C)C)c(OC)c(C(C)(C)C)c3)CCCC2)cc1 = 99
• Cc1cnc(CNC(=O)C2(NC(=O)c3cc(C(C)(C)C)c(O)c(C(C)(C)C)c3)CC2)cn1 = 98.8
• CC(C)(C)c1cc(C(=O)NC2(C(=O)NCc3cccc(C(F)(F)F)c3)CCCC2)cc(C(C)(C)C)c1 = 77.9

Observed inhibition at 30 µM on Human Cav2.2 channels (Homo sapiens, UniProt Q00975) for COc1ccc(CNC(=O)C2(NC(=O)c3cc(C(C)(C)C#N)cc(C(C)(C)C#N)c3)CCOCC2)cc1 , please. 73.4

Observed inhibition at 30 µM on Human Cav2.2 channels (Homo sapiens, UniProt Q00975) for CC(C)(C)c1cc(C(=O)NC2(C(=O)Nc3ccncc3)CCCCC2)cc(C(C)(C)C)c1 , please. 101

Observed inhibition at 30 µM on Human Cav2.2 channels (Homo sapiens, UniProt Q00975) for CC(C)(C)NC(=O)C(C)(C)c1ccc(C(=O)NC2(C(=O)NCc3ccccc3)CCCCC2)cc1 , please. 85.8

Observed inhibition at 30 µM on Human Cav2.2 channels (Homo sapiens, UniProt Q00975) for CC(C)(C)c1cc(C(=O)NC2(C(=O)N3CCN(Cc4ccccc4)CC3)CCCCC2)cc(C(C)(C)C)n1 , please. 95.3

---

- target entity: Human Cav2.2 channels (Homo sapiens)
- method summary: Fluorescent assay for Cav2.2 channels using potassium depolarization to initiate channel opening
- condition label: 30 mM K (block of open and inactivated channels); read-out: Cav 2.2 Activity IC50 at 30 mM K
observable: IC50 (nM)
# value in nM; strip the unit string

• CC(C)(C)c1cc(C(=O)NC2(C(=O)NCCCN3CCOCC3)CCCCC2)cc(C(C)(C)C)n1 [Compound 99] = 700
• CC(C)(C)c1cc(C(=O)NC2(C(=O)NCc3nccs3)CCCCC2)cc(C(C)(C)C)c1O [Compound 13] = 34.1
• COc1c(C(C)(C)C)cc(C(=O)NC2(C(=O)NCc3ccc(S(C)(=O)=O)cc3)CCCCC2)cc1C(C)(C)C [Compound 108] = 81.6

Observed IC50 on Human Cav2.2 channels (Homo sapiens) for CN(C)c1ccc(CNC(=O)C2(NC(=O)c3cc(C(C)(C)C)nc(C(C)(C)C)c3)CCCCC2)cc1 [Compound 77] , please. 574

Observed IC50 on Human Cav2.2 channels (Homo sapiens) for CC(C)(C)c1cc(C(=O)NC2(C(=O)NCc3ccccn3)CCCCC2)cc(C(C)(C)C)c1 [Compound 47] , please. 35.6

Observed IC50 on Human Cav2.2 channels (Homo sapiens) for CC(C)(C)c1cc(C(=O)NC2(C(=O)N3CCN(Cc4ccccc4)CC3)CCCCC2)cc(C(C)(C)C)n1 [Compound 69] , please. 538

Observed IC50 on Human Cav2.2 channels (Homo sapiens) for CC(C)(C#N)c1cccc(C(=O)NC2(C(=O)NCc3cccc(C(F)(F)F)c3)CCCCC2)c1 [Compound 124] , please. 810
